Provenance of the data: patent US20240270826A1

molecular target: SARS-CoV-2 S1-NTD (aa16-305) (SARS-CoV-2 Wuhan, UniProt P0DTC2 16-305); assay: ELISA, coated antigen, apparent EC50
// reported EC50 for each item listed
Please state the figure in nM; there is no need to write the unit.

{"columns": ["BINDER", "UNIT_ABBREVIATION", "MEASUREMENT"],
 "data": [
  ["NRCoV2-SR16 VHH-Fc (Fc fusion, bivalent) QVQLVQSAGGLVQAGGSLRLSCVVSGTTFSRYHMGWHRQAPGKQRDFVAGISTSGAVTYADSAKGRFTISRDNAKNTVYLEMNSLKLEDTALYYCNTGGWDYRSSTFIMGLNWGQGTQVTVSS", "nM", 0.36],
  ["NRCoV2-MRed03 VHH-Fc (Fc fusion, bivalent) EVQLVESGGGLVQPGGSLRLSCAAIGFTLDYYAIGWFRQAPGKEREGVSCISSSDGSTYYADSVKGRFTISRDNAKNTVYLQMNSLKPEDTAVYYCATDAFATCDSWYAQIAQYDFRGQGTQVTVSS", "nM", 0.7]
]}

As a next step, examine the binder that follows.
Lookup: What value of EC50 has been reported for the following binder? NRCoV2-MRed06 VHH-Fc (Fc fusion, bivalent) EVQLVESGGGLVQAGGSLRLSCAASGFTLAYYAIGWFRQAPGKEREGVSCISSSDGSAHYADSVKGRFTISRDNAKNTVSLQMNSLKPEDTAVYYCATDSFSSCSDYESGMDFWGKGTQVTVSS
Found: 0.4
